The origin of these recorded values is patent US8598182B2.

Test system: Corn Earworm (Helicoverpa zea)
Experiment: Insecticidal diet-surface test for corn earworm
Assay type: in vivo
Settings: second-instar corn earworm, 50 ug/cm2 on diet surface, 5 days after treatment, dead insects of 8
readout-name: HELIZE 50 (ug/cm2), percent control (%)
Quick reminder: number only, in %, skip the unit.

Problem: Which HELIZE 50 (ug/cm2), percent control reading was recorded for the compound Clc1ccc(Nc2cc(Cl)nc(N/N=C/c3cccc(Cl)c3)n2)cc1 [Compound 28] ?
Result: 50

Problem: Queued: Clc1cccc(/C=N/Nc2nc(Cl)cc(Nc3cccc(Br)c3)n2)c1 [Compound 35]
Result: 25

Problem: Queued: COc1ccc(/C=N/Nc2nc(Cl)cc(Nc3ccc(Cl)cc3)n2)cc1 [Compound 29]
Result: 0

Problem: Queued: N#Cc1ccc(/C=N/Nc2nc(Cl)cc(Nc3cccc(Cl)c3)n2)cc1 [Compound 33]
Result: 13

Problem: Queued: Fc1ccc(Nc2cc(Cl)nc(N/N=C/c3ccc(C(F)(F)F)nc3)n2)cc1C(F)(F)F [Compound 68]
Result: 100

Problem: Queued: FC(F)(F)c1ccc(/C=N/Nc2nc(Cl)cc(Nc3cccc(Br)c3)n2)cc1 [Compound 40]
Result: 100

Problem: Queued: Fc1ccc(Nc2cc(N/N=C/c3ccc(OC(F)(F)F)cc3)nc(NCc3ccc(Cl)nc3)n2)cc1C(F)(F)F [Compound 3]
Result: 100

Problem: Queued: FC(F)C(F)(F)Oc1cccc(/C=N/Nc2nc(Cl)cc(Nc3ccc(Cl)cc3)n2)c1 [Compound 45]
Result: 63

Problem: Queued: FC(F)C(F)(F)Oc1ccc(Nc2cc(Cl)nc(N/N=C/c3cccc(OC(F)(F)C(F)F)c3)n2)cc1 [Compound 7]
Result: 25

Problem: Queued: Clc1ccc(/C=N/Nc2nc(Cl)cc(Nc3cccc(Br)c3)n2)cc1 [Compound 36]
Result: 38

Problem: Queued: FC(F)C(F)(F)Oc1ccc(/C=N/Nc2nc(Cl)cc(Nc3ccc(OC(F)(F)C(F)F)cc3)n2)cc1 [Compound 5]
Result: 88

Problem: Queued: CN(/N=C/c1ccc(OC(F)(F)C(F)F)cc1)c1nc(Cl)cc(Nc2ccc(F)c(C(F)(F)F)c2)n1 [Compound 58]
Result: 100

Problem: Queued: FC(F)(F)Oc1ccc(/C=N/Nc2nc(Cl)cc(Nc3cccc(Cl)c3)n2)cc1 [Compound 39]
Result: 100

Problem: Queued: Fc1ccc(Nc2ccnc(N/N=C/c3ccc(OC(F)(F)C(F)F)cc3)n2)cc1C(F)(F)F [Compound 4]
Result: 100

Problem: Queued: Fc1cc(Nc2ccc(OC(F)(F)C(F)F)cc2)nc(NN=Cc2ccc(OC(F)(F)F)cc2)n1 [Compound 19]
Result: 13

Problem: Queued: Fc1ccc(Nc2cc(Cl)nc(N/N=C/c3cccc(OC(F)(F)C(F)F)c3)n2)cc1C(F)(F)F [Compound 30]
Result: 13

Problem: Queued: Fc1ccc(Nc2cc(C(F)(F)F)nc(N/N=C/c3ccc(OC(F)(F)F)cc3)n2)cc1C(F)(F)F [Compound 56]
Result: 100

Problem: Queued: Fc1ccc(Nc2cc(OCC(F)(F)F)nc(N/N=C/c3ccc(OC(F)(F)F)cc3)n2)cc1C(F)(F)F [Compound 63]
Result: 100

----------
LAPHEG 50 (ug/cm2), percent control values, listed per item
Test system: Beet Armyworm (Spodoptera exigua)
Test: Insecticidal diet-surface test for beet armyworm
Assay type: in vivo
Details: second-instar beet armyworm, 50 ug/cm2 on diet surface, 5 days after treatment, dead insects of 8
Quick reminder: number only, in %, skip the unit.

compound | LAPHEG 50 (ug/cm2), percent control (%)
Clc1cccc(/C=N/Nc2nc(Cl)cc(Nc3cccc(Br)c3)n2)c1 [Compound 35] | 0
Clc1ccc(Nc2cc(Cl)nc(N/N=C/c3ccc(N4CCCCC4)cc3)n2)cc1 [Compound 27] | 38
Fc1ccc(Nc2cc(Cl)nc(N/N=C/c3ccc(OC(F)(F)C(F)F)cc3)n2)cc1C(F)(F)F [Compound 59] | 100

Now let's try a different one.
Problem: Which LAPHEG 50 (ug/cm2), percent control reading was recorded for the compound FC(F)(F)Oc1ccc(/C=N/Nc2nc(Cl)cc(Nc3ccc(Cl)cc3)n2)cc1 [Compound 26] ?
Result: 100
